Tgt: Spike glycoprotein (Severe acute respiratory syndrome coronavirus 2, UniProt P0DTC2)
Measured Property: IC50 (nM)
Give bare numbers, in nM.

For the compound shown here, COc1cc(Cc2cnc(N)nc2N)cc2c(N(C)C)cc(C)nc12 , give the reported IC50.
600

Data provenance: BindingDB's records for PubMed 32539378
